Ref: patent US11053204B2

Each record here notes measured pest or weed control at 500 g/ha.
- Test system: giant foxtail (Setaria faberii)
- procedure text: Test A postemergence, visual injury rating
- Type: in vivo
- measurement context: Setaria faberi, post-emergence, 240 h, 500 g ai/ha, 0 is no effect, 100 is complete control, read-out: Foxtail, Giant plant response rating (0 to 100 scale)
readout kind: pest or weed control at 500 g/ha (%)

{"entry smiles": "O=C(NCC(F)(F)F)c1ccccc1Oc1ncc(Cl)cn1", "system": "giant foxtail (Setaria faberii)", "readout kind": "pest or weed control at 500 g/ha", "measured": 0}
{"entry smiles": "O=C(OCCCC(F)(F)F)c1c(Br)cccc1Oc1ncc(Cl)cn1", "system": "giant foxtail (Setaria faberii)", "readout kind": "pest or weed control at 500 g/ha", "measured": 100}
{"entry smiles": "C=CCCOC(=O)c1c(Br)cccc1Oc1ncc(Cl)cn1", "system": "giant foxtail (Setaria faberii)", "readout kind": "pest or weed control at 500 g/ha", "measured": 100}
{"entry smiles": "O=C(OCC(F)(F)C(F)(F)F)c1c(Br)cccc1Oc1ncc(Cl)cn1", "system": "giant foxtail (Setaria faberii)", "readout kind": "pest or weed control at 500 g/ha", "measured": 80}
{"entry smiles": "N#Cc1cccc(Oc2ncc(Cl)cn2)c1CCCCC(F)(F)F", "system": "giant foxtail (Setaria faberii)", "readout kind": "pest or weed control at 500 g/ha", "measured": 100}

* * *

- Tested on: kochia (Kochia scoparia)
- procedure text: Test A postemergence, visual injury rating
- Type: in vivo
- measurement context: 500 g ai/ha, 0 is no effect, 100 is complete control
Each record here notes measured Kochia plant response rating (0 to 100 scale).
readout kind: Kochia plant response rating (0 to 100 scale)

{"molecule": "CCC(C)OC(=O)c1c(Br)cccc1Oc1ncc(Cl)cn1 (centres unmarked)", "system": "kochia (Kochia scoparia)", "measured": 70}
{"molecule": "O=C(OCCC(F)(F)F)c1c(Br)cccc1Oc1ncc(Br)cn1", "system": "kochia (Kochia scoparia)", "measured": 100}
{"molecule": "N#CCOC(=O)c1c(Br)cccc1Oc1ncc(Cl)cn1", "system": "kochia (Kochia scoparia)", "measured": 100}
{"molecule": "O=Cc1c(Cl)cccc1Oc1ncc(Cl)cn1", "system": "kochia (Kochia scoparia)", "measured": 0}
{"molecule": "N#CCOC(=O)c1c(C#N)cccc1Oc1ncc(Cl)cn1", "system": "kochia (Kochia scoparia)", "measured": 0}
{"molecule": "O=C(OCC(F)(F)F)c1c(F)cccc1Oc1ncc(Cl)cn1", "system": "kochia (Kochia scoparia)", "measured": 0}
{"molecule": "O=C(OCCC(F)(F)F)c1c(F)cccc1Oc1ncc(Br)cn1", "system": "kochia (Kochia scoparia)", "measured": 60}
{"molecule": "CCCCC(=O)c1c(Br)cccc1Oc1ncc(Cl)cn1", "system": "kochia (Kochia scoparia)", "measured": 100}

* * *

Each record here notes measured Barnyardgrass plant response rating.
- Test system: barnyardgrass (Echinochloa crus-galli)
- procedure text: Test A postemergence, visual injury rating
- Type: in vivo
- measurement context: 31 g ai/ha, 0 to 100 scale, 0 is no effect, 100 is complete control, approximately 10 days
readout kind: Barnyardgrass plant response rating

{"compound": "CN(CCC(F)(F)F)C(=O)c1c(Br)cccc1Oc1ncc(Cl)cn1", "measured": 0}
{"compound": "C=C(C)CCOC(=O)c1c(Br)cccc1Oc1ncc(Cl)cn1", "measured": 0}
{"compound": "COc1cccc(Oc2ncc(Cl)cn2)c1C(C)=O", "measured": 0}
{"compound": "N#Cc1cccc(Oc2ncc(Cl)cn2)c1C(=O)CCCC(F)(F)F", "measured": 10}
{"compound": "CCCCCC(C#N)c1ccccc1Oc1ncc(Cl)cn1 (stereo not shown)", "measured": 10}
{"compound": "C#CCCOC(=O)c1c(Br)cccc1Oc1ncc(Cl)cn1", "measured": 10}
{"compound": "FC(F)(F)CCCOCc1c(Br)cccc1Oc1ncc(Cl)cn1", "measured": 10}
{"compound": "CC(=NOC(C)C)c1c(C#N)cccc1Oc1ncc(Cl)cn1", "measured": 10}
{"compound": "CCON=C(C)c1c(Br)cccc1Oc1ncc(Cl)cn1", "measured": 0}
{"compound": "FC(F)(F)CCCCCc1c(Cl)cccc1Oc1ncc(Cl)cn1", "measured": 10}

* * *

- Tested on: soybean (Glycine max)
- procedure text: Test C postemergence, plant response rating
- Type: in vivo
- measurement context: 62 g ai/ha, scale 0 to 100 (0 no effect, 100 complete control)
Each record here notes measured Soybean plant response rating.

{"compound": "FC(F)(F)CCCc1c(Br)cccc1Oc1ncc(Cl)cn1", "Soybean plant response rating": 65}
{"compound": "O=C(CCC(F)(F)C(F)(F)F)c1c(Br)cccc1Oc1ncc(Cl)cn1", "Soybean plant response rating": 50}
{"compound": "N#Cc1cccc(Oc2ncc(Cl)cn2)c1CCCC(F)(F)F", "Soybean plant response rating": 40}
{"compound": "CCCC(=O)c1c(Br)cccc1Oc1ncc(Cl)cn1", "Soybean plant response rating": 85}
{"compound": "N#Cc1cccc(Oc2ncc(Cl)cn2)c1COCCC(F)(F)F", "Soybean plant response rating": 90}
{"compound": "O=C(CCCCC(F)(F)F)c1c(Br)cccc1Oc1ncc(Cl)cn1", "Soybean plant response rating": 35}
{"compound": "N#CC(CCCC(F)(F)F)c1ccccc1Oc1ncc(Cl)cn1 (centres unmarked)", "Soybean plant response rating": 50}
{"compound": "N#CCCOC(=O)c1c(Br)cccc1Oc1ncc(Cl)cn1", "Soybean plant response rating": 40}

* * *

- Test system: pigweed, palmer (palmer pigweed, Amaranthus palmeri)
- procedure text: Test C postemergence, plant response rating
- Assay type: in vivo
- measurement context: 31 g ai/ha, scale 0 to 100
- Source text: […]
Classify by measured Plant response rating, Pigweed, Palmer: Met if it is equal to or exceeds 60, Not met if it is smaller.

{"entry smiles": "O=C(CCC(F)(F)F)c1c(Cl)cccc1Oc1ncc(Cl)cn1", "qualitative label": "Met"}
{"entry smiles": "CCCCC(=O)c1c(Oc2ncc(Cl)cn2)cccc1C(F)(F)F", "qualitative label": "Met"}
{"entry smiles": "N#Cc1cccc(Oc2ncc(Cl)cn2)c1COCCC(F)(F)F", "qualitative label": "Not met"}
{"entry smiles": "O=C(CCCC(F)(F)F)c1c(Oc2ncc(Cl)cn2)cccc1C(F)(F)F", "qualitative label": "Met"}
{"entry smiles": "O=C(CCCCC(F)(F)F)c1c(Br)cccc1Oc1ncc(Cl)cn1", "qualitative label": "Met"}

* * *

- Test system: kochia (Kochia scoparia)
- procedure text: Test A preemergence, visual injury rating
- Assay type: in vivo
- measurement context: 31 g ai/ha, 0 to 100 scale, 0 no effect, 100 complete control

{"compound": "O=C(OCC(Cl)CCl)c1c(Br)cccc1Oc1ncc(Cl)cn1 (stereo not drawn)", "system": "kochia (Kochia scoparia)", "Plant response rating, Kochia": 0}
{"compound": "CC(C)(C)OC(=O)c1c(F)cccc1Oc1ncc(Cl)cn1", "system": "kochia (Kochia scoparia)", "Plant response rating, Kochia": 100}
{"compound": "C#CCCOC(=O)c1c(Br)cccc1Oc1ncc(Cl)cn1", "system": "kochia (Kochia scoparia)", "Plant response rating, Kochia": 0}
{"compound": "N#Cc1cccc(Oc2ncc(Cl)cn2)c1COCCCC(F)(F)F", "system": "kochia (Kochia scoparia)", "Plant response rating, Kochia": 0}
{"compound": "O=C(SCCC(F)(F)F)c1c(Br)cccc1Oc1ncc(Cl)cn1", "system": "kochia (Kochia scoparia)", "Plant response rating, Kochia": 0}
{"compound": "CC(C)Oc1cccc(Oc2ncc(Cl)cn2)c1C(=O)OCCC(F)(F)F", "system": "kochia (Kochia scoparia)", "Plant response rating, Kochia": 70}

* * *

- Test system: barnyardgrass (Echinochloa crus-galli)
- procedure text: Test A postemergence, visual injury rating
- Format: in vivo
- measurement context: 1000 g ai/ha, 0 is no effect, 100 is complete control
Each record here notes measured Barnyardgrass plant response rating (0 to 100 scale).
readout kind: Barnyardgrass plant response rating (0 to 100 scale)

{"compound": "CC(=O)c1c(Br)cccc1Oc1ncc(Cl)cn1 [Compound 12]", "measured": 80}
{"compound": "CON=C(C)c1ccccc1Oc1ncc(Cl)cn1 [Compound 55]", "measured": 0}
{"compound": "CC(C)ON=Cc1ccccc1Oc1ncc(Cl)cn1 [Compound 57]", "measured": 20}
{"compound": "CC(=NOC(C)C)c1ccccc1Oc1ncc(Cl)cn1 [Compound 56]", "measured": 50}

* * *

- Tested on: velvetleaf (Abutilon theophrasti)
- procedure text: Test C preemergence, plant response rating
- Type: in vivo
- measurement context: Preemergence; 62 g ai/ha; scale 0 to 100
readout kind: Plant response rating, Velvetleaf

{"compound": "CCCC(=O)c1c(Oc2ncc(Cl)cn2)cccc1C(F)(F)F", "measured": 15}
{"compound": "CCCC(=O)c1c(Br)cccc1Oc1ncc(Cl)cn1", "measured": 35}
{"compound": "O=C(CCC(F)(F)F)c1c(Br)cccc1Oc1ncc(Cl)cn1", "measured": 100}
{"compound": "N#CC(CCCC(F)(F)F)c1ccccc1Oc1ncc(Cl)cn1 (stereo not shown)", "measured": 15}
{"compound": "N#Cc1cccc(Oc2ncc(Cl)cn2)c1COCCC(F)(F)F", "measured": 70}
{"compound": "O=C(CCCC(F)(F)F)c1c(Cl)cccc1Oc1ncc(Cl)cn1", "measured": 40}
{"compound": "N#Cc1cccc(Oc2ncc(Cl)cn2)c1CCCC(F)(F)F", "measured": 55}
